Measurement Target: DRB1*08:02 (Homo sapiens, UniProt P01903+P01911, A100R/A103L/A169T/F76Y/H45Y/I96F/K41T/L162R/M171V/P40S/Q125H/Q178H/Q39Y/Q99D/R218S/R42G/S66Y/V115G/W38E)
Procedure Summary: biochemical
Where a SMILES comes first, the peptide text is derived from it.
Readout: pIC50
// pIC50: -log10(molar conc.)

Task: Fill in pIC50 for record CC[C@H](C)[C@H](NC(=O)[C@H](Cc1c[nH]cn1)NC(=O)[C@H](CCCCN)NC(=O)[C@H](CC(N)=O)NC(=O)[C@H](CC(C)C)NC(=O)[C@H](CC(C)C)NC(=O)[C@@H](NC(=O)[C@@H](NC(=O)[C@H](CCC(N)=O)NC(=O)[C@H](CC(=O)O)NC(=O)[C@H](CCCCN)NC(=O)[C@@H](N)Cc1ccccc1)C(C)C)[C@@H](C)CC)C(=O)N[C@@H](CC(=O)O)C(=O)N[C@@H](C)C(=O)N[C@@H](Cc1ccc(O)cc1)C(=O)O [Ncl_70] (H-FKDQVILLNKHIDAY-OH)
Result: 6.82

Task: Give pIC50 for the following compound: CC(C)C[C@H](NC(=O)[C@H](CCC(N)=O)NC(=O)[C@H](CC(N)=O)NC(=O)[C@H](CC(C)C)NC(=O)[C@H](CCCNC(=N)N)NC(=O)[C@H](CC(=O)O)NC(=O)[C@H](CC(C)C)NC(=O)[C@H](CC(C)C)NC(=O)[C@H](CC(C)C)NC(=O)[C@H](CC(C)C)NC(=O)[C@H](C)NC(=O)[C@H](CC(C)C)NC(=O)[C@H](C)NC(=O)[C@H](C)NC(=O)[C@@H](N)CC(=O)O)C(=O)O [Ncl_44] (H-DAALALLLLDRLNQL-OH)
Result: 5.94

Task: Supply recorded pIC50 for CC[C@H](C)[C@H](NC(=O)[C@H](CCC(=O)O)NC(=O)[C@@H](N)CCCCN)C(=O)N[C@H](C(=O)N[C@H](C(=O)N[C@@H](C)C(=O)N[C@H](C(=O)N[C@@H](CO)C(=O)N[C@@H](CCCNC(=N)N)C(=O)N[C@H](C(=O)N[C@@H](CC(C)C)C(=O)N[C@@H](CO)C(=O)N[C@@H](Cc1ccc(O)cc1)C(=O)N[C@@H](Cc1ccc(O)cc1)C(=O)N[C@@H](CCCCN)C(=O)O)[C@@H](C)O)[C@@H](C)O)C(C)C)[C@@H](C)O [Mem_34] (H-KEITVATSRTLSYYK-OH) here.
Result: 6.64
